Protocol details: activity coefficient (dimensionless); of the first substance listed, at infinite dilution; xn = mol fraction of the nth substance listed
Measurement conditions: 328.15 K; 101 kPa; Liquid; Chromatography; x1 = 0
API: label(entry) gives satisfied if the entry's activity coefficient is strictly smaller than 2; on equality or larger values it gives not satisfied.

{"columns": ["Molecule", "Classification"],
 "data": [
  ["CCC(C)(C)OC [2-methoxy-2-methylbutane] + CCCCCC[N+]1(C)CCCCC1.O=S(=O)([N-]S(=O)(=O)C(F)(F)F)C(F)(F)F", "not satisfied"],
  ["CCCCCCCC [octane] + CCCCC[N+]1(C)CCCCC1.O=S(=O)([N-]S(=O)(=O)C(F)(F)F)C(F)(F)F", "not satisfied"],
  ["CCCC(C)=O [pentan-2-one] + CCCCC[N+]1(C)CCCCC1.O=S(=O)([N-]S(=O)(=O)C(F)(F)F)C(F)(F)F", "satisfied"],
  ["C1CCCCCC1 [cycloheptane] + CCCCC[N+]1(C)CCCCC1.O=S(=O)([N-]S(=O)(=O)C(F)(F)F)C(F)(F)F", "not satisfied"],
  ["C1=CCCCC1 [cyclohexene] + CCCCC[N+]1(C)CCCCC1.O=S(=O)([N-]S(=O)(=O)C(F)(F)F)C(F)(F)F", "not satisfied"],
  ["C#CCCCC [1-hexyne] + CCCCCC[N+]1(C)CCCCC1.O=S(=O)([N-]S(=O)(=O)C(F)(F)F)C(F)(F)F", "satisfied"],
  ["C1CCOC1 [tetrahydrofuran] + CCCCC[N+]1(C)CCCCC1.O=S(=O)([N-]S(=O)(=O)C(F)(F)F)C(F)(F)F", "satisfied"],
  ["C1CCCC1 [cyclopentane] + CCCCC[N+]1(C)CCCCC1.O=S(=O)([N-]S(=O)(=O)C(F)(F)F)C(F)(F)F", "not satisfied"],
  ["c1ccsc1 [thiophene] + CCCCC[N+]1(C)CCCCC1.O=S(=O)([N-]S(=O)(=O)C(F)(F)F)C(F)(F)F", "satisfied"],
  ["CCO [ethanol] + CCCCC[N+]1(C)CCCCC1.O=S(=O)([N-]S(=O)(=O)C(F)(F)F)C(F)(F)F", "satisfied"],
  ["COC(C)(C)C [2-methoxy-2-methylpropane] + CCCCCC[N+]1(C)CCCCC1.O=S(=O)([N-]S(=O)(=O)C(F)(F)F)C(F)(F)F", "satisfied"],
  ["C=CCCCCC [1-heptene] + CCCCCC[N+]1(C)CCCCC1.O=S(=O)([N-]S(=O)(=O)C(F)(F)F)C(F)(F)F", "not satisfied"],
  ["CCCCC(C)=O [2-hexanone] + CCCCC[N+]1(C)CCCCC1.O=S(=O)([N-]S(=O)(=O)C(F)(F)F)C(F)(F)F", "satisfied"],
  ["CCCCCC [hexane] + CCCCC[N+]1(C)CCCCC1.O=S(=O)([N-]S(=O)(=O)C(F)(F)F)C(F)(F)F", "not satisfied"],
  ["CO [methanol] + CCCCC[N+]1(C)CCCCC1.O=S(=O)([N-]S(=O)(=O)C(F)(F)F)C(F)(F)F", "satisfied"],
  ["CCCCCCCCC [nonane] + CCCCC[N+]1(C)CCCCC1.O=S(=O)([N-]S(=O)(=O)C(F)(F)F)C(F)(F)F", "not satisfied"],
  ["CCCCCCCCCC [decane] + CCCCC[N+]1(C)CCCCC1.O=S(=O)([N-]S(=O)(=O)C(F)(F)F)C(F)(F)F", "not satisfied"],
  ["Cc1ccccc1 [toluene] + CCCCCC[N+]1(C)CCCCC1.O=S(=O)([N-]S(=O)(=O)C(F)(F)F)C(F)(F)F", "satisfied"],
  ["COC(C)(C)C [2-methoxy-2-methylpropane] + CCCCC[N+]1(C)CCCCC1.O=S(=O)([N-]S(=O)(=O)C(F)(F)F)C(F)(F)F", "satisfied"],
  ["CCCCC(C)=O [2-hexanone] + CCCCCC[N+]1(C)CCCCC1.O=S(=O)([N-]S(=O)(=O)C(F)(F)F)C(F)(F)F", "satisfied"],
  ["CC(C)CC(C)(C)C [2,2,4-trimethylpentane] + CCCCCC[N+]1(C)CCCCC1.O=S(=O)([N-]S(=O)(=O)C(F)(F)F)C(F)(F)F", "not satisfied"],
  ["CCCOCCC [dipropyl ether] + CCCCC[N+]1(C)CCCCC1.O=S(=O)([N-]S(=O)(=O)C(F)(F)F)C(F)(F)F", "not satisfied"],
  ["CCCCO [butan-1-ol] + CCCCCC[N+]1(C)CCCCC1.O=S(=O)([N-]S(=O)(=O)C(F)(F)F)C(F)(F)F", "satisfied"],
  ["c1ccsc1 [thiophene] + CCCCCC[N+]1(C)CCCCC1.O=S(=O)([N-]S(=O)(=O)C(F)(F)F)C(F)(F)F", "satisfied"]
]}

* * *

Protocol details: activity coefficient (dimensionless); of the first substance listed, at infinite dilution; xn = mol fraction of the nth substance listed
Measurement conditions: 348.15 K; 101 kPa; Liquid; Chromatography; x1 = 0
Some compounds, each annotated with its measured activity coefficient.

{"columns": ["Compound", "activity coefficient"],
 "data": [
  ["CCCCC [pentane] + CCCCCC[N+]1(C)CCCCC1.O=S(=O)([N-]S(=O)(=O)C(F)(F)F)C(F)(F)F", 5.2],
  ["CCCOCCC [dipropyl ether] + CCCCC[N+]1(C)CCCCC1.O=S(=O)([N-]S(=O)(=O)C(F)(F)F)C(F)(F)F", 3.98],
  ["CCCCC(C)=O [2-hexanone] + CCCCC[N+]1(C)CCCCC1.O=S(=O)([N-]S(=O)(=O)C(F)(F)F)C(F)(F)F", 0.822],
  ["C#CCCCCC [1-heptyne] + CCCCCC[N+]1(C)CCCCC1.O=S(=O)([N-]S(=O)(=O)C(F)(F)F)C(F)(F)F", 2.52],
  ["C#CCCCC [1-hexyne] + CCCCCC[N+]1(C)CCCCC1.O=S(=O)([N-]S(=O)(=O)C(F)(F)F)C(F)(F)F", 1.96],
  ["CCCCO [butan-1-ol] + CCCCCC[N+]1(C)CCCCC1.O=S(=O)([N-]S(=O)(=O)C(F)(F)F)C(F)(F)F", 1.64],
  ["O [water] + CCCCCC[N+]1(C)CCCCC1.O=S(=O)([N-]S(=O)(=O)C(F)(F)F)C(F)(F)F", 2.8]
]}

* * *

Protocol details: activity coefficient (dimensionless); of the first substance listed, at infinite dilution; xn = mol fraction of the nth substance listed
Measurement conditions: 358.15 K; 101 kPa; Liquid; Chromatography; x1 = 0

{"columns": ["Compound", "activity coefficient"],
 "data": [
  ["CCCO [propan-1-ol] + CCCCCC[N+]1(C)CCCCC1.O=S(=O)([N-]S(=O)(=O)C(F)(F)F)C(F)(F)F", 1.33],
  ["C1=CCCCC1 [cyclohexene] + CCCCC[N+]1(C)CCCCC1.O=S(=O)([N-]S(=O)(=O)C(F)(F)F)C(F)(F)F", 3.21],
  ["C1CCCCCC1 [cycloheptane] + CCCCC[N+]1(C)CCCCC1.O=S(=O)([N-]S(=O)(=O)C(F)(F)F)C(F)(F)F", 6.26],
  ["Cc1ccc(C)cc1 [1,4-dimethylbenzene] + CCCCCC[N+]1(C)CCCCC1.O=S(=O)([N-]S(=O)(=O)C(F)(F)F)C(F)(F)F", 1.3],
  ["Cc1ccccc1C [1,2-dimethylbenzene] + CCCCCC[N+]1(C)CCCCC1.O=S(=O)([N-]S(=O)(=O)C(F)(F)F)C(F)(F)F", 1.18],
  ["C=CCCCCC [1-heptene] + CCCCCC[N+]1(C)CCCCC1.O=S(=O)([N-]S(=O)(=O)C(F)(F)F)C(F)(F)F", 5.35],
  ["CCCCO [butan-1-ol] + CCCCC[N+]1(C)CCCCC1.O=S(=O)([N-]S(=O)(=O)C(F)(F)F)C(F)(F)F", 1.57],
  ["CCc1ccccc1 [ethylbenzene] + CCCCC[N+]1(C)CCCCC1.O=S(=O)([N-]S(=O)(=O)C(F)(F)F)C(F)(F)F", 1.43]
]}

* * *

Protocol details: activity coefficient (dimensionless); of the first substance listed, at infinite dilution; xn = mol fraction of the nth substance listed
Measurement conditions: 318.15 K; 101 kPa; Liquid; Chromatography; x1 = 0
Some compounds, each annotated with its measured activity coefficient.
Quantity measured: activity coefficient

{"columns": ["Compound", "Value measured"],
 "data": [
  ["CCCC(C)=O [pentan-2-one] + CCCCC[N+]1(C)CCCCC1.O=S(=O)([N-]S(=O)(=O)C(F)(F)F)C(F)(F)F", 0.611],
  ["c1ccccc1 [benzene] + CCCCC[N+]1(C)CCCCC1.O=S(=O)([N-]S(=O)(=O)C(F)(F)F)C(F)(F)F", 0.703],
  ["CCCO [propan-1-ol] + CCCCCC[N+]1(C)CCCCC1.O=S(=O)([N-]S(=O)(=O)C(F)(F)F)C(F)(F)F", 1.83],
  ["CCCCCCCC [octane] + CCCCCC[N+]1(C)CCCCC1.O=S(=O)([N-]S(=O)(=O)C(F)(F)F)C(F)(F)F", 12.7],
  ["CCCOCCC [dipropyl ether] + CCCCC[N+]1(C)CCCCC1.O=S(=O)([N-]S(=O)(=O)C(F)(F)F)C(F)(F)F", 4.13],
  ["C1CCCCC1 [cyclohexane] + CCCCC[N+]1(C)CCCCC1.O=S(=O)([N-]S(=O)(=O)C(F)(F)F)C(F)(F)F", 5.95],
  ["C#CCCC [1-pentyne] + CCCCC[N+]1(C)CCCCC1.O=S(=O)([N-]S(=O)(=O)C(F)(F)F)C(F)(F)F", 1.59],
  ["C1CCCCCCC1 [cyclooctane] + CCCCCC[N+]1(C)CCCCC1.O=S(=O)([N-]S(=O)(=O)C(F)(F)F)C(F)(F)F", 7.36],
  ["c1ccccc1 [benzene] + CCCCCC[N+]1(C)CCCCC1.O=S(=O)([N-]S(=O)(=O)C(F)(F)F)C(F)(F)F", 0.687],
  ["CCCC(C)=O [pentan-2-one] + CCCCCC[N+]1(C)CCCCC1.O=S(=O)([N-]S(=O)(=O)C(F)(F)F)C(F)(F)F", 0.581],
  ["CO [methanol] + CCCCCC[N+]1(C)CCCCC1.O=S(=O)([N-]S(=O)(=O)C(F)(F)F)C(F)(F)F", 1.37],
  ["C=CCCCCCCCC [1-decene] + CCCCCC[N+]1(C)CCCCC1.O=S(=O)([N-]S(=O)(=O)C(F)(F)F)C(F)(F)F", 12.1],
  ["CCCCO [butan-1-ol] + CCCCC[N+]1(C)CCCCC1.O=S(=O)([N-]S(=O)(=O)C(F)(F)F)C(F)(F)F", 2.16],
  ["CCc1ccccc1 [ethylbenzene] + CCCCCC[N+]1(C)CCCCC1.O=S(=O)([N-]S(=O)(=O)C(F)(F)F)C(F)(F)F", 0.894],
  ["CC(C)CC(C)(C)C [2,2,4-trimethylpentane] + CCCCC[N+]1(C)CCCCC1.O=S(=O)([N-]S(=O)(=O)C(F)(F)F)C(F)(F)F", 12.5]
]}
